- Tested on: Bacillus subtilis
- MEASUREMENT NOTES: Antimicrobial activity against Bacillus subtilis 2250 at 35 degC after 18 to 24 hrs by NCCLS method based antimicrobial assay
- Type: functional
- CONDITION SET: read-out: MBC99.9
MEASURED PROPERTY: MBC (µg/mL)
Please give a number only; it is taken to be in µg/mL.

Past entries and their recorded results:
{"STRUCTURE": "Fc1ccc(/C(Cn2nnc3ccccc32)=N\\Nc2nc(-c3ccc(F)cc3)cs2)cc1", "MBC / µg/mL": 128}
{"STRUCTURE": "Fc1ccc(/C(Cn2nnc3ccccc32)=N\\Nc2nc(-c3cc(C(F)(F)F)cc(C(F)(F)F)c3)cs2)cc1", "MBC / µg/mL": 64}

Okay, now this molecule:
Identify MBC associated with the molecule FC(F)(F)c1cc(-c2csc(N/N=C(/Cn3nnc4ccccc43)c3ccc(Br)cc3)n2)cc(C(F)(F)F)c1
128

----------
- System: Staphylococcus aureus
- MEASUREMENT NOTES: Antimicrobial activity against Staphylococcus aureus 2079 at 35 degC after 18 to 24 hrs by NCCLS method based antimicrobial assay
- Format: functional
Active and inactive are the calls of the source. The rule behind the calls is not given here.
MEASURED PROPERTY: MIC

Past entries and their recorded results:
{"STRUCTURE": "FC(F)(F)c1cc(/C(Cn2nnc3ccccc32)=N\\Nc2nc(-c3cc(C(F)(F)F)cc(C(F)(F)F)c3)cs2)cc(C(F)(F)F)c1", "TARGET SYSTEM": "Staphylococcus aureus", "MIC": "inactive"}
{"STRUCTURE": "Fc1ccc(-c2csc(N/N=C(/Cn3nnc4ccccc43)c3ccc(Cl)cc3)n2)cc1", "TARGET SYSTEM": "Staphylococcus aureus", "MIC": "64 mg/L"}
{"STRUCTURE": "Fc1ccc(-c2csc(N/N=C(/Cn3nnc4ccccc43)c3cc(C(F)(F)F)cc(C(F)(F)F)c3)n2)cc1", "TARGET SYSTEM": "Staphylococcus aureus", "MIC": "32 mg/L"}
{"STRUCTURE": "Clc1ccc(/C(Cn2nnc3ccccc32)=N\\Nc2nc(-c3ccc(Cl)cc3)cs2)cc1", "TARGET SYSTEM": "Staphylococcus aureus", "MIC": "64 mg/L"}
{"STRUCTURE": "FC(F)(F)c1cc(-c2csc(N/N=C(/Cn3nnc4ccccc43)c3ccc(Br)cc3)n2)cc(C(F)(F)F)c1", "TARGET SYSTEM": "Staphylococcus aureus", "MIC": "64 mg/L"}

Identify MIC associated with the compound O=[N+]([O-])c1ccc(-c2csc(N/N=C(/Cn3nnc4ccccc43)c3ccc(Br)cc3)n2)cc1
inactive

Identify MIC associated with the compound Clc1ccc(-c2csc(N/N=C(/Cn3nnc4ccccc43)c3ccc(Br)cc3)n2)cc1
inactive

----------
- Test system: Bacillus subtilis
- MEASUREMENT NOTES: Antimicrobial activity against Bacillus subtilis 2250 at 35 degC after 18 to 24 hrs by NCCLS method based antimicrobial assay
- Assay type: functional
The source made the active and inactive calls. No cut-off for these calls is given here.
MEASURED PROPERTY: MIC

{"STRUCTURE": "O=[N+]([O-])c1ccc(-c2csc(N/N=C(/Cn3nnc4ccccc43)c3ccc(Cl)cc3)n2)cc1", "MEASURED PROPERTY": "MIC", "OBSERVED MEASUREMENT": "inactive"}
{"STRUCTURE": "FC(F)(F)c1cc(/C(Cn2nnc3ccccc32)=N\\Nc2nc(-c3ccc(Br)cc3)cs2)cc(C(F)(F)F)c1", "MEASURED PROPERTY": "MIC", "OBSERVED MEASUREMENT": "inactive"}
{"STRUCTURE": "Fc1ccc(/C(Cn2nnc3ccccc32)=N\\Nc2nc(-c3ccc(Br)cc3)cs2)cc1", "MEASURED PROPERTY": "MIC", "OBSERVED MEASUREMENT": "64 µg/mL"}
